# Test system: C. freundii GN 1706
# test: Minimal inhibitory concentration (M.I.C.), agar dilution method
# Format: cell-based, Citrobacter freundii
# cond: TSA, inoculum 10^7 /ml
Assign minimal inhibitory concentration (M.I.C.) to each entry below.
# print the numeric value only

So what does the record say about minimal inhibitory concentration (M.I.C.) for CCNC(=O)O/N=C(\C(=O)NC1C(=O)N2C(C(=O)O)=C(COC(C)=O)CSC12)c1csc(=N)[nH]1 (stereo not shown) [Example II - 7] ?
0.78

So what does the record say about minimal inhibitory concentration (M.I.C.) for CNC(=O)O/N=C(\C(=O)NC1C(=O)N2C(C(=O)O)=C(CSc3nnc(C)o3)CSC12)c1csc(=N)[nH]1 (stereo not shown) [Example IV - 10] ?
0.78

So what does the record say about minimal inhibitory concentration (M.I.C.) for CNC(=O)O/N=C(\C(=O)NC1C(=O)N2C(C(=O)O)=C(C)CSC12)c1csc(=N)[nH]1 (stereo not shown) [Example II - 6] ?
12.5

So what does the record say about minimal inhibitory concentration (M.I.C.) for CCNC(=O)O/N=C(\C(=O)NC1C(=O)N2C(C(=O)O)=C(CSc3nnc(C)s3)CSC12)c1csc(=N)[nH]1 (stereo not shown) [Example II - 10] ?
0.78

So what does the record say about minimal inhibitory concentration (M.I.C.) for CCCNC(=O)O/N=C(\C(=O)NC1C(=O)N2C(C(=O)O)=C(CSc3nnnn3C)CSC12)c1csc(=N)[nH]1 (stereo not shown) [Example II - 14] ?
0.39

So what does the record say about minimal inhibitory concentration (M.I.C.) for CC(=O)OCC1=C(C(=O)O)N2C(=O)C(NC(=O)/C(=N\OC(=O)NC3CCCCC3)c3csc(=N)[nH]3)C2SC1 (stereo not shown) [Example II - 24] ?
0.78

So what does the record say about minimal inhibitory concentration (M.I.C.) for CNC(=O)O/N=C(\C(=O)NC1C(=O)N2C(C(=O)O)=C(CSc3cnn[nH]3)CSC12)c1csc(=N)[nH]1 (stereo not shown) [Example IV - 9] ?
1.56

So what does the record say about minimal inhibitory concentration (M.I.C.) for CNC(=O)O/N=C(\C(=O)NC1C(=O)N2C(C(=O)O)=C(COC(N)=O)CSC12)c1csc(=N)[nH]1 (stereo not shown) [Example II - 3] ?
0.2

So what does the record say about minimal inhibitory concentration (M.I.C.) for CC(C)NC(=O)O/N=C(\C(=O)NC1C(=O)N2C(C(=O)O)=C(COC(N)=O)CSC12)c1csc(=N)[nH]1 (stereo not shown) [Example II - 17] ?
0.78

So what does the record say about minimal inhibitory concentration (M.I.C.) for CNC(=O)O/N=C(\C(=O)NC1C(=O)N2C(C(=O)O)=C(CSc3nnnn3C)CSC12)c1csc(=N)[nH]1 (stereo not shown) [Example II - 4] ?
0.39

---

Assign minimal inhibitory concentration (M.I.C.) to each entry below.
# System: E. coli 0-111
# test: Minimal inhibitory concentration (M.I.C.), agar dilution method
# Assay type: cell-based, Escherichia coli
# cond: TSA, inoculum 10^7 /ml

So what does the record say about minimal inhibitory concentration (M.I.C.) for CNC(=O)O/N=C(\C(=O)NC1C(=O)N2C(C(=O)O)=C(COC(C)=O)CSC12)c1csc(=N)[nH]1 (stereo not shown) [Example II - 1] ?
≤ 0.012

So what does the record say about minimal inhibitory concentration (M.I.C.) for CNC(=O)O/N=C(\C(=O)NC1C(=O)N2C(C(=O)O)=C(CSc3nnnn3CCO)CSC12)c1csc(=N)[nH]1 (stereo not shown) [Example IV - 4] ?
≤ 0.2

So what does the record say about minimal inhibitory concentration (M.I.C.) for CNC(=O)O/N=C(\C(=O)NC1C(=O)N2C(C(=O)O)=C(CSc3nnc(CC(N)=O)s3)CSC12)c1csc(=N)[nH]1 (stereo not shown) [Example IV - 6] ?
≤ 0.2

So what does the record say about minimal inhibitory concentration (M.I.C.) for CNC(=O)O/N=C(\C(=O)NC1C(=O)N2C(C(=O)O)=C(CSc3nc(CC(=O)O)cs3)CSC12)c1csc(=N)[nH]1 (stereo not shown) [Example IV - 7] ?
≤ 0.2
